Target: T1, human IL-18BP (human, UniProt O95998 31-194)
T1 construct: UniProt printed as 095998; also called hIL-18BP
T1 sequence: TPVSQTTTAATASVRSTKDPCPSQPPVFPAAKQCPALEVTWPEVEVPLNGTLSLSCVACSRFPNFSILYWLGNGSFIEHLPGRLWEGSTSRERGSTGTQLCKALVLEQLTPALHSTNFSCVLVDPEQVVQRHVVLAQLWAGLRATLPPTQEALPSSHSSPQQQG
Test: BLI, apparent KD
Readout Kind: pKd
Reminder that pKd is minus the log10 of a molar concentration.

1) SA301a HC-Y53S (antibody, name in Kabat numbering, V domains shown, IgG1 kappa) VH: QVQLQESGPGLVKPSQTLSLTCTVSGYSITSDYNSHWIRQPPGKGLEWIGYIHSSGSTNYNPSLKSRVTISRDTSKNQFSLKLSSVTAADTAVYYCARNYGSIYVNYFDYWGQGTLVTVSS VL: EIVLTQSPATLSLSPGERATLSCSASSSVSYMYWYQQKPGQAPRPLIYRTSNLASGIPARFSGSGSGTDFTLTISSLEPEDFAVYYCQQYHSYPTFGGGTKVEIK    8.58

Using the record for SA301a HC-I51R (antibody, name in Kabat numbering, V domains shown, IgG1 kappa) VH: QVQLQESGPGLVKPSQTLSLTCTVSGYSITSDYNSHWIRQPPGKGLEWIGYRHYSGSTNYNPSLKSRVTISRDTSKNQFSLKLSSVTAADTAVYYCARNYGSIYVNYFDYWGQGTLVTVSS VL: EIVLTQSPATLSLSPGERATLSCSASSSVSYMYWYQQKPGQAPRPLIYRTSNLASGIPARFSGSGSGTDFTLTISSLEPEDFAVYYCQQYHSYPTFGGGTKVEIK , report its pKd.
8.70

Reference for the values: patent US20250368745A1
